The origin of these recorded values is ChEMBL document CHEMBL4765246.

Documented Selectivity ratio across a set of compounds
Test system: Human immunodeficiency virus type 1 BH10
PROCEDURE DETAILS: Selectivity for inhibition of wild type recombinant HIV-1 subtype B BH10 p66/p51 reverse transcriptase heterodimer expressed in Escherichia coli BL21 (DE3) at 50 uM over inhibition of recombinant HIV-1 subtype B BH10 p66/p51 reverse transcriptase heterodimer K103N mutant at 50 uM by fluorescence based assay

- SMILES ENTRY: "CC(C)COC(=O)N1c2ccccc2NC(=O)[C@@H]1CC(C)C"
  Selectivity ratio: 3
- SMILES ENTRY: "CC(C)Cc1nc2ccccc2[nH]c1=O"
  Selectivity ratio: 16
- SMILES ENTRY: "CCC(=O)N1CC(=O)Nc2ccccc21"
  Selectivity ratio: 2
- SMILES ENTRY: "CC(C)COC(=O)N1c2ccccc2NC(=O)[C@@H]1C"
  Selectivity ratio: 5
- SMILES ENTRY: "Cc1ccnc2c1NC(=O)c1cccnc1N2C1CC1"
  Selectivity ratio: 2

---

Documented selectivity ratio across a set of molecules
PROCEDURE DETAILS: Selectivity index, ratio of CC50 for human MT2 cells to EC50 for anti-HIV-1 activity against HTLV-3B infected in human MT2 cells
Type: toxicity, cell-based
CONDITION LABEL: read-out: Ratio CC50/EC50
MEASURED METRIC: selectivity ratio

- MOLECULE: "Cc1ccnc2c1NC(=O)c1cccnc1N2C1CC1 [NEVIRAPINE]"
  MEASURED METRIC: "selectivity ratio"
  MEAS VALUE: 14400
- MOLECULE: "CC(C)COC(=O)N1c2ccccc2NC(=O)[C@@H]1C"
  MEASURED METRIC: "selectivity ratio"
  MEAS VALUE: 74
- MOLECULE: "CCC(=O)N1CC(=O)Nc2ccccc21"
  MEASURED METRIC: "selectivity ratio"
  MEAS VALUE: 31800

---

Tested on: Human immunodeficiency virus type 1 BH10
PROCEDURE DETAILS: Inhibition of wild type recombinant HIV-1 subtype B BH10 p66/p51 reverse transcriptase heterodimer expressed in Escherichia coli BL21 (DE3) assessed as inhibition of dTTP incorporation on poly(rA)-oligo(dT) template primer duplex at 10 uM preincubated with enzyme for 2 mins followed by incubation with poly(A)-oligo(dT) templates for 2 hrs by flourescence assay method
CONDITION LABEL: time 122.0 min
Documented inhibition across a set of compounds

- SMILES ENTRY: "CC(C)OC(=O)CCc1nc2ccccc2nc1O"
  inhibition: "21%"
- SMILES ENTRY: "Cc1ccnc2c1NC(=O)c1cccnc1N2C1CC1"
  inhibition: "91%"
- SMILES ENTRY: "CC(C)OC(=O)N1CC(=O)Nc2ccccc21"
  inhibition: "20%"
- SMILES ENTRY: "CCOC(=O)CCc1nc2ccccc2nc1O"
  inhibition: "15%"
- SMILES ENTRY: "O=C1CN(S(=O)(=O)c2ccccc2)c2ccccc2N1"
  inhibition: "14%"
- SMILES ENTRY: "O=C1CN(C(=O)c2ccccc2)c2ccccc2N1"
  inhibition: "14%"
- SMILES ENTRY: "CC(C)COC(=O)N1CC(=O)Nc2ccccc21"
  inhibition: "20%"
- SMILES ENTRY: "CC(C)[C@H]1C(=O)Nc2ccccc2N1C(=O)CCCl"
  inhibition: "7%"
- SMILES ENTRY: "CCC(=O)N1CC(=O)Nc2ccccc21"
  inhibition: "91%"
- SMILES ENTRY: "CC(C)Cc1nc2ccccc2[nH]c1=O"
  inhibition: "15%"
- SMILES ENTRY: "CC(=O)N1CC(=O)Nc2ccccc21"
  inhibition: "7%"
- SMILES ENTRY: "CC(C)C[C@H]1C(=O)Nc2ccccc2N1C(=O)CCCl"
  inhibition: "10%"
- SMILES ENTRY: "O=C1CN(C(=O)CCl)c2ccccc2N1"
  inhibition: "24%"
- SMILES ENTRY: "Oc1nc2ccccc2nc1O"
  inhibition: "8%"
- SMILES ENTRY: "CC(C)COC(=O)N1c2ccccc2NC(=O)[C@@H]1CC(C)C"
  inhibition: "22%"
- SMILES ENTRY: "COC(=O)CCc1nc2ccccc2nc1O"
  inhibition: "8%"
- SMILES ENTRY: "CCC(=O)N1c2ccccc2NC(=O)[C@@H]1C"
  inhibition: "7%"
- SMILES ENTRY: "O=C(O)CCc1nc2ccccc2[nH]c1=O"
  inhibition: "20%"
- SMILES ENTRY: "O=C1CN(C(=O)CCCl)c2ccccc2N1"
  inhibition: "12%"
- SMILES ENTRY: "Cc1nc2ccccc2nc1O"
  inhibition: "3%"
- SMILES ENTRY: "CC(C)COC(=O)N1c2ccccc2NC(=O)[C@@H]1C"
  inhibition: "37%"
- SMILES ENTRY: "Oc1nc2ccccc2nc1Cc1ccccc1"
  inhibition: "10%"
- SMILES ENTRY: "CC(C)c1nc2ccccc2[nH]c1=O"
  inhibition: "12%"
- SMILES ENTRY: "C[C@H]1CNc2ccccc2N1C(=O)CCl"
  inhibition: "8%"
- SMILES ENTRY: "CC(C)[C@H]1C(=O)Nc2ccccc2N1C(=O)CCl"
  inhibition: "5%"
- SMILES ENTRY: "C[C@H]1C(=O)Nc2ccccc2N1C(=O)CCCl"
  inhibition: "15%"
